For each entry below, report its normalized RNA/DNA level with ligand (log10) value.
B1: library; a variant is named by its letters at N, in order (parent)
chain: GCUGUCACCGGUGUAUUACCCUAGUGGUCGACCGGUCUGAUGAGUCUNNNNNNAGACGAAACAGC

- Variants of: B1
- test description: normalized RNA/DNA level with ligand (relative to sTRSVctl = 100) (log10 (% of sTRSVctl)); ligand: hypoxanthine (xanthine aptamer); higher = less ribozyme self-cleavage, higher mRNA level
- experimental context: ligand concentration (+) RNA-Seq: 5 mM, HEK293T, reporter: mCherry (pCS4076), ligand present: yes
Give bare numbers.

Recorded results for 6 variants are shown here.
INSERT INTO measurements (variant_identifier, assay_result) VALUES
  ('AAGUUC', 1.9),
  ('UCUCGU', 1.96),
  ('UUCCAA', 1.92),
  ('CCUGUA', 1.89),
  ('UGUGAG', 1.89),
  ('AUCUUA', 1.92);

For every record below, what is its normalized RNA/DNA level with ligand (log10)?
1. GCAGAA
2. GUACAC
3. GAGAUA
4. UCUGAG
5. AUAAGC
6. UCCUAA

1.88
1.92
1.87
1.93
1.92
1.96

Would you mind giving normalized RNA/DNA level with ligand (log10) for every variant in the list below?
1. CACCAA
2. AAUUAA
3. GUGUCU
4. AAGAAU
5. UGUGAA
6. CGGCCC

1.9
1.89
1.95
1.91
1.91
1.98

Dear reader, for each entry below, please note its normalized RNA/DNA level with ligand (log10).
1. UACCUA
2. CAUGAG
3. ACCCCG
4. UGAAAU

1. 1.93
2. 1.92
3. 1.86
4. 1.91

Please report normalized RNA/DNA level with ligand (log10) for every entry that follows.
1. GAGCCU
2. CGUUCU
3. CAUCUU
4. CGUCGU
5. ACUGGU
6. AGCGUG
7. GACAAC

2.01
1.97
2
2.05
1.93
1.8
1.93
